# procedureDetails: basal MM1S mitochondrial membrane potential changes, profiling panel, cell-based, JC-1 fluorescence, 24 h, 100 nL compound (AID 1170); also: test concentration not given here
# conditionInfo: higher = more signal
Listed compounds paired with reported z-score
Form: value (number only, do not type unit).

Example entries and their recorded answers appear below.
1) CCOC(=O)C[C@H]1[C@H](OC(=O)c2ccccc2-c2ccccc2)[C@@H](NC(=O)c2ccc(-c3ccccc3)cc2)c2cc(OCCCO)ccc2N1C(=O)Cc1ccc(OC)cc1 ... 0.103
2) CCCN1C(=O)[C@@]2(CCS(=O)(=O)c3ccccc3)N=C(c3ccc(OCCCO)cc3)O[C@H]2c2ccccc21 ... -0.148
3) O=C1O[C@H](c2ccccc2)[C@H](c2ccccc2)N2[C@H]1[C@@H](C(=O)NC[C@H](O)c1ccccc1)[C@]1(C(=O)Nc3ccc(C#CC4=CCCCC4)cc31)[C@H]2c1ccc(OCCO)cc1 ... -1.52

Turning to the following compound.
Quick one: z-score for CO[C@@H]1COC(=O)CC=C[C@@H](C)[C@H](OC)COC(=O)CC=C[C@H]1C ?
1.21

Cited source: PubChem BioAssay
